Data provenance: PubChem BioAssay AID1963842

Measured viability, T/C accompanies every entry in the list below.
System: 677734-321-R-J1-PDC complex spheroid viability
ASSAY PROTOCOL: Anticancer human tumor 677734-321-R-J1-PDC patient-derived soft tissue sarcoma cell line growth inhibition [POLQ]
CONDITIONS USED: second compound 1 µM; first compound 0.1 µM; stronger effect = lower value

MOLECULE	viability, T/C, %
CNCc1ccc(-c2[nH]c3cc(F)cc4c3c2CCNC4=O)cc1 + Nc1ccc(C#CCN(C(=O)Cc2ncc(C(F)(F)F)cc2C(F)(F)F)c2ccc(F)cc2)nn1	86.4
CC[C@@]1(O)C(=O)OCc2c1cc1n(c2=O)Cc2cc3c(CN(C)C)c(O)ccc3nc2-1 + COC1C(OC(N)=O)C(O)C(Oc2ccc3c(O)c(NC(=O)c4ccc(O)c(CC=C(C)C)c4)c(=O)oc3c2C)OC1(C)C	15.4
CC1COCCN1c1cc(C2(S(C)(=N)=O)CC2)nc(-c2ccnc3[nH]ccc23)n1 (configuration not stated) + COC1C(OC(N)=O)C(O)C(Oc2ccc3c(O)c(NC(=O)c4ccc(O)c(CC=C(C)C)c4)c(=O)oc3c2C)OC1(C)C	98.7
O=c1[nH]cc(F)c(=O)[nH]1 + COC1C(OC(N)=O)C(O)C(Oc2ccc3c(O)c(NC(=O)c4ccc(O)c(CC=C(C)C)c4)c(=O)oc3c2C)OC1(C)C	101
C=CC(=O)N1CCN(c2nc(=O)n(-c3c(C)ccnc3C(C)C)c3nc(-c4c(O)cccc4F)c(F)cc23)C(C)C1 (configuration not stated) + Cc1cccc(N(C)C(=O)C2C(O)CCN2c2nc(C)cc(C(F)(F)F)c2C#N)c1	94.9
CC1COCCN1c1cc(C2(O)CC3CCC(C2)O3)c2cnn(-c3ccn[nH]3)c2n1 (configuration not stated) + Cc1cccc(N(C)C(=O)C2C(O)CCN2c2nc(C)cc(C(F)(F)F)c2C#N)c1	49.6
C=CCn1c(=O)c2cnc(Nc3ccc(N4CCN(C)CC4)cc3)nc2n1-c1cccc(C(C)(C)O)n1 + COC1C(OC(N)=O)C(O)C(Oc2ccc3c(O)c(NC(=O)c4ccc(O)c(CC=C(C)C)c4)c(=O)oc3c2C)OC1(C)C	112
O=C(c1cc(Cc2n[nH]c(=O)c3ccccc23)ccc1F)N1CCN(C(=O)C2CC2)CC1 + Nc1ccc(C#CCN(C(=O)Cc2ncc(C(F)(F)F)cc2C(F)(F)F)c2ccc(F)cc2)nn1	108
CC[C@@]1(O)C(=O)OCc2c1cc1n(c2=O)Cc2cc3c(CN(C)C)c(O)ccc3nc2-1 + Cc1cccc(N(C)C(=O)C2C(O)CCN2c2nc(C)cc(C(F)(F)F)c2C#N)c1	17.6
C#Cc1c(F)ccc2cc(O)cc(-c3ncc4c(N5CC6CCC(C5)N6)nc(OCC56CCCN5CC(F)C6)nc4c3F)c12 (configuration not stated) + Cc1cccc(N(C)C(=O)C2C(O)CCN2c2nc(C)cc(C(F)(F)F)c2C#N)c1	97
Nc1ccn(C2OC(CO)C(O)C2(F)F)c(=O)n1 (configuration not stated) + COC1C(OC(N)=O)C(O)C(Oc2ccc3c(O)c(NC(=O)c4ccc(O)c(CC=C(C)C)c4)c(=O)oc3c2C)OC1(C)C	17.2
COc1cccc2c1C(=O)c1c(O)c3c(c(O)c1C2=O)CC(O)(C(=O)CO)CC3OC1CC(N)C(O)C(C)O1 (configuration not stated) + COC1C(OC(N)=O)C(O)C(Oc2ccc3c(O)c(NC(=O)c4ccc(O)c(CC=C(C)C)c4)c(=O)oc3c2C)OC1(C)C	70.1
Cn1ncnc1[C@H]1c2n[nH]c(=O)c3cc(F)cc(c23)N[C@@H]1c1ccc(F)cc1 + COC1C(OC(N)=O)C(O)C(Oc2ccc3c(O)c(NC(=O)c4ccc(O)c(CC=C(C)C)c4)c(=O)oc3c2C)OC1(C)C	92.5
C#Cc1c(F)ccc2cc(O)cc(-c3ncc4c(N5CC6CCC(C5)N6)nc(OCC56CCCN5CC(F)C6)nc4c3F)c12 (configuration not stated) + COC1C(OC(N)=O)C(O)C(Oc2ccc3c(O)c(NC(=O)c4ccc(O)c(CC=C(C)C)c4)c(=O)oc3c2C)OC1(C)C	97.5
COc1cc(C2c3cc4c(cc3C(OC3OC5COC(C)OC5C(O)C3O)C3COC(=O)C23)OCO4)cc(OC)c1O (configuration not stated) + COC1C(OC(N)=O)C(O)C(Oc2ccc3c(O)c(NC(=O)c4ccc(O)c(CC=C(C)C)c4)c(=O)oc3c2C)OC1(C)C	87.2
COc1cc2cc(C(=O)CCC(=O)O)sc2cc1OC + COC1C(OC(N)=O)C(O)C(Oc2ccc3c(O)c(NC(=O)c4ccc(O)c(CC=C(C)C)c4)c(=O)oc3c2C)OC1(C)C	102
CCCS(=O)(=O)Nc1ccc(F)c(C(=O)c2c[nH]c3ncc(-c4ccc(Cl)cc4)cc23)c1F + COC1C(OC(N)=O)C(O)C(Oc2ccc3c(O)c(NC(=O)c4ccc(O)c(CC=C(C)C)c4)c(=O)oc3c2C)OC1(C)C	107

---

System: 677734-321-R-J1-PDC complex spheroid viability
ASSAY PROTOCOL: Anticancer human tumor 677734-321-R-J1-PDC cell line growth inhibition [POLQ];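 also: spheroids exposed to compounds for one week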
CONDITIONS USED: curve of first compound; second compound 1 µM
Protocol: Multicellular complex tumor spheroid response to Polymerase (POL) inhibitors (novobiocin, ART-558, RP6685) in combination with a variety of drugs and investigational agents in selected tumor cell lines The POL inhibitors (novobiocin, ART-558, and RP6685) were evaluated both individually and in combination with standard of care and investigational anticancer small molecules within a complex spheroid model of solid tumors. . […]
Overview of recorded IC50 for various compounds

COMPOUND	IC50
O=C(c1cc(Cc2n[nH]c(=O)c3ccccc23)ccc1F)N1CCN(C(=O)C2CC2)CC1 + Nc1ccc(C#CCN(C(=O)Cc2ncc(C(F)(F)F)cc2C(F)(F)F)c2ccc(F)cc2)nn1	> 10 µM
CCc1c2c(nc3ccc(O)cc13)-c1cc3c(c(=O)n1C2)COC(=O)[C@]3(O)CC + Nc1ccc(C#CCN(C(=O)Cc2ncc(C(F)(F)F)cc2C(F)(F)F)c2ccc(F)cc2)nn1	< 0.00316 µM
COc1cc2cc(C(=O)CCC(=O)O)sc2cc1OC + COC1C(OC(N)=O)C(O)C(Oc2ccc3c(O)c(NC(=O)c4ccc(O)c(CC=C(C)C)c4)c(=O)oc3c2C)OC1(C)C	> 10 µM

---

// reported viability, T/C for each item listed
Test system: 677734-321-R-J1-PDC complex spheroid viability
ASSAY PROTOCOL: Anticancer human tumor 677734-321-R-J1-PDC cell line growth inhibition [POLQ];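 also: spheroids exposed to compounds for one week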;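 as to viability, T/C: 100% = vehicle DMSO treated spheroids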
CONDITIONS USED: second compound 0.0316 µM; first compound 0.0316 µM; stronger effect = lower value

COMPOUND	viability, T/C
COc1cccc(OCCCN)c1-c1cc(Nc2cnc(C#N)cn2)n[nH]1 + Nc1ccc(C#CCN(C(=O)Cc2ncc(C(F)(F)F)cc2C(F)(F)F)c2ccc(F)cc2)nn1	5.82%
C=CCn1c(=O)c2cnc(Nc3ccc(N4CCN(C)CC4)cc3)nc2n1-c1cccc(C(C)(C)O)n1 + COC1C(OC(N)=O)C(O)C(Oc2ccc3c(O)c(NC(=O)c4ccc(O)c(CC=C(C)C)c4)c(=O)oc3c2C)OC1(C)C	101%
CC1COCCN1c1cc(C2(S(C)(=N)=O)CC2)nc(-c2ccnc3[nH]ccc23)n1 (configuration not stated) + COC1C(OC(N)=O)C(O)C(Oc2ccc3c(O)c(NC(=O)c4ccc(O)c(CC=C(C)C)c4)c(=O)oc3c2C)OC1(C)C	109%
CCc1c2c(nc3ccc(O)cc13)-c1cc3c(c(=O)n1C2)COC(=O)[C@]3(O)CC + COC1C(OC(N)=O)C(O)C(Oc2ccc3c(O)c(NC(=O)c4ccc(O)c(CC=C(C)C)c4)c(=O)oc3c2C)OC1(C)C	4.37%
COc1cc2cc(C(=O)CCC(=O)O)sc2cc1OC + Cc1cccc(N(C)C(=O)C2C(O)CCN2c2nc(C)cc(C(F)(F)F)c2C#N)c1	104%
C#Cc1c(F)ccc2cc(O)cc(-c3ncc4c(N5CC6CCC(C5)N6)nc(OCC56CCCN5CC(F)C6)nc4c3F)c12 (configuration not stated) + Cc1cccc(N(C)C(=O)C2C(O)CCN2c2nc(C)cc(C(F)(F)F)c2C#N)c1	110%
COc1ccc([C@@H](O)c2cc(-c3ncnc4cc(N5CCOCC5)ccc34)c(F)cc2Cl)nn1 + COC1C(OC(N)=O)C(O)C(Oc2ccc3c(O)c(NC(=O)c4ccc(O)c(CC=C(C)C)c4)c(=O)oc3c2C)OC1(C)C	106%
Cn1ncnc1[C@H]1c2n[nH]c(=O)c3cc(F)cc(c23)N[C@@H]1c1ccc(F)cc1 + COC1C(OC(N)=O)C(O)C(Oc2ccc3c(O)c(NC(=O)c4ccc(O)c(CC=C(C)C)c4)c(=O)oc3c2C)OC1(C)C	98.8%
Nc1ccn(C2OC(CO)C(O)C2(F)F)c(=O)n1 (configuration not stated) + Cc1cccc(N(C)C(=O)C2C(O)CCN2c2nc(C)cc(C(F)(F)F)c2C#N)c1	38.5%
CC1COCCN1c1cc(-c2ccnn2C)c2ccnc(-c3ccn[nH]3)c2n1 (configuration not stated) + COC1C(OC(N)=O)C(O)C(Oc2ccc3c(O)c(NC(=O)c4ccc(O)c(CC=C(C)C)c4)c(=O)oc3c2C)OC1(C)C	98.5%
C=CC(=O)N1CCN(c2nc(=O)n(-c3c(C)ccnc3C(C)C)c3nc(-c4c(O)cccc4F)c(F)cc23)C(C)C1 (configuration not stated) + COC1C(OC(N)=O)C(O)C(Oc2ccc3c(O)c(NC(=O)c4ccc(O)c(CC=C(C)C)c4)c(=O)oc3c2C)OC1(C)C	109%
CCc1c2c(nc3ccc(O)cc13)-c1cc3c(c(=O)n1C2)COC(=O)[C@]3(O)CC + Nc1ccc(C#CCN(C(=O)Cc2ncc(C(F)(F)F)cc2C(F)(F)F)c2ccc(F)cc2)nn1	5.47%
